The measured values listed here are drawn from ChEMBL document CHEMBL1149876.

Biological target: UniProtKB P29466
Sequence (P29466 120-297 limits assumed): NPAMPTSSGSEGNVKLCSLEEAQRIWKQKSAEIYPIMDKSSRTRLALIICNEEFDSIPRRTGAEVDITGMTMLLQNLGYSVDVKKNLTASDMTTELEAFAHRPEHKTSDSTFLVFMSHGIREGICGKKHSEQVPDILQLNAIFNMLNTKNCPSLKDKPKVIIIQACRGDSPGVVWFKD
Sequence (P29466 317-404 limits assumed): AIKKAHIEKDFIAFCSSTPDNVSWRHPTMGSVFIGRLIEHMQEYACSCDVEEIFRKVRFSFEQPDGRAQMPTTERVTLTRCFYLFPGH
Recorded IC50 values for a group of molecules are listed next.
Provide the reading as a plain figure in µM.

CC(C)CC1(O)NC(=O)C2(OC(Cc3ccccc3)=CC2=O)C1O (configuration not stated) [BERKELEYAMIDE D] : 0.61

Okay, now this molecule:
Which IC50 is reported for this molecule? CC(C)C[C@H]1C[C@H]([C@@H](O)CC(=O)Cc2ccccc2)C(=O)N1 [BERKELEYAMIDE A]
0.33
